Ref: ChEMBL document CHEMBL1143346

Tgt: Cathepsin S (Homo sapiens, UniProt P25774)
Sequence (P25774 whole entry): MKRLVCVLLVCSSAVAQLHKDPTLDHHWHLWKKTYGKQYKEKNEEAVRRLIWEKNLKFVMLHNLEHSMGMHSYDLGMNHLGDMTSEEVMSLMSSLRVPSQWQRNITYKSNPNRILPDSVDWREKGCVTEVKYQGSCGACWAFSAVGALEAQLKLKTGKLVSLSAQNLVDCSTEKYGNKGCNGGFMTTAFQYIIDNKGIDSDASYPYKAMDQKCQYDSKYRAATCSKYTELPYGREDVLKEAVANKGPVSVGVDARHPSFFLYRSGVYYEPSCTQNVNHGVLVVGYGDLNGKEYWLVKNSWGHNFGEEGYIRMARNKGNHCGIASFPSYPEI
Assay notes: Inhibition of human recombinant cathepsin S expressed in baculovirus by fluorescence assay
pKi: −log10 of the molar value.
Observation type: pKi

Use these answered entries as a reference point.
[
  {
    "Test smiles": "CC[C@@H]1OCC(=O)[C@H]1NC(=O)[C@H](CC1(C)CCCC1)NC(=O)c1ccc(NS(=O)(=O)c2nc(C(C)C)cs2)cc1",
    "pKi": 8.24
  },
  {
    "Test smiles": "CC[C@@H]1OCC(=O)[C@H]1NC(=O)[C@H](CC1(C)CCCC1)NC(=O)c1ccc(NS(C)(=O)=O)c(OC)c1",
    "pKi": 7.59
  },
  {
    "Test smiles": "CC[C@@H]1OCC(=O)[C@H]1NC(=O)[C@H](CC1(C)CCCC1)NC(=O)c1ccc(NS(=O)(=O)c2ccccc2C)cc1",
    "pKi": 8.41
  },
  {
    "Test smiles": "CCCCS(=O)(=O)Nc1ccc(C(=O)N[C@@H](CC2(C)CCCC2)C(=O)N[C@@H]2C(=O)CO[C@H]2CC)cc1",
    "pKi": 8.47
  }
]

[A] CC[C@@H]1OCC(=O)[C@H]1NC(=O)[C@H](CC1(C)CCCC1)NC(=O)c1cccc(S(=O)(=O)NC)c1
[B] CC[C@@H]1OCC(=O)[C@H]1NC(=O)[C@H](CC1(C)CCCC1)NC(=O)c1ccc(NS(=O)(=O)c2ccccn2)cc1
Qu. I'd appreciate it if you could identify which of A and B has the greater pKi. Reply briefly: the label of your chosen item.
Ans. B
(B: 8.64, A: 6.72)

###

Tgt: UniProt P07711
pKi: −log10 of the molar value.
Observation type: pKi

Use these answered entries as a reference point.
[
  {
    "Test smiles": "CC[C@@H]1OCC(=O)[C@H]1NC(=O)[C@H](CC1(C)CCCC1)NC(=O)c1ccc(NS(C)(=O)=O)cc1OC",
    "Tgt": "UniProt P07711",
    "Observed value": 4.54
  },
  {
    "Test smiles": "CC[C@@H]1OCC(=O)[C@H]1NC(=O)[C@H](CC1(C)CCCC1)NC(=O)c1ccc(NS(C)(=O)=O)nc1",
    "Tgt": "UniProt P07711",
    "Observed value": 4.85
  }
]

[A] CC[C@@H]1OCC(=O)[C@H]1NC(=O)[C@H](CC1(C)CCCC1)NC(=O)c1ccc(NS(=O)(=O)c2cccc(F)c2)cc1
[B] CC[C@@H]1OCC(=O)[C@H]1NC(=O)[C@H](CC1(C)CCCC1)NC(=O)c1ccc(NS(=O)(=O)c2ccncc2)cc1
[C] CC[C@@H]1OCC(=O)[C@H]1NC(=O)[C@H](CC1(C)CCCC1)NC(=O)c1ccc(S(=O)(=O)NC)cc1
Qu. List from greatest to least pKi. Answer by listing the labels in the order asked for.
Ans. A, B, C
(A: 5.11, B: 4.89, C: 4.57)

[a] CC[C@@H]1OCC(=O)[C@H]1NC(=O)[C@H](CC1(C)CCCC1)NC(=O)c1ccc(NS(C)(=O)=O)cc1
[b] CC[C@@H]1OCC(=O)[C@H]1NC(=O)[C@H](CC1(C)CCCC1)NC(=O)c1ccc(NS(C)(=O)=O)cc1C
Qu. Could you determine which record has the numerically smaller pKi? Candidates: a and b Reply briefly: the label of your chosen item.
Ans. b

[I] CC[C@@H]1OCC(=O)[C@H]1NC(=O)[C@H](CC1(C)CCCC1)NC(=O)c1ccc(NS(=O)(=O)c2ccccc2C)cc1
[II] CC[C@@H]1OCC(=O)[C@H]1NC(=O)[C@H](CC1(C)CCCC1)NC(=O)c1ccc(NS(=O)(=O)c2ccccc2)c(C)c1
[III] CC[C@@H]1OCC(=O)[C@H]1NC(=O)[C@H](CC1(C)CCCC1)NC(=O)c1cccc(S(=O)(=O)NC)c1
Qu. Ordering: ascending pKi. Answer by listing the labels in the order asked for.
Ans. III, I, II

###

Tgt: Cathepsin S (Homo sapiens)
Assay notes: Inhibition of human recombinant cathepsin S expressed in baculovirus by fluorescence assay
Observation type: Ki (nM)

[
  {
    "Test smiles": "CC[C@@H]1OCC(=O)[C@H]1NC(=O)[C@H](CC1(C)CCCC1)NC(=O)c1ccc(NS(=O)(=O)c2ccccc2)c(Cl)c1",
    "Unit abbreviation": "nM",
    "Observed value": 12
  },
  {
    "Test smiles": "CC[C@@H]1OCC(=O)[C@H]1NC(=O)[C@H](CC1(C)CCCC1)NC(=O)c1ccc(NS(=O)(=O)c2ncc(C)s2)cc1",
    "Unit abbreviation": "nM",
    "Observed value": 8.6
  },
  {
    "Test smiles": "CC[C@@H]1OCC(=O)[C@H]1NC(=O)[C@H](CC1(C)CCCC1)NC(=O)c1cccc(NS(C)(=O)=O)c1",
    "Unit abbreviation": "nM",
    "Observed value": 12
  }
]

###

Tgt: Cathepsin K (Homo sapiens)
Assay notes: Inhibition of human recombinant cathepsin K expressed in baculovirus by fluorescence assay
Observation type: Ki (nM)

Use these answered entries as a reference point.
[
  {
    "Test smiles": "CC[C@@H]1OCC(=O)[C@H]1NC(=O)[C@H](CC1(C)CCCC1)NC(=O)c1ccc(NS(=O)(=O)c2cccnc2Cl)cc1",
    "Unit abbreviation": "nM",
    "Ki": 800
  },
  {
    "Test smiles": "CC[C@@H]1OCC(=O)[C@H]1NC(=O)[C@H](CC1(C)CCCC1)NC(=O)c1ccc(NS(C)(=O)=O)nc1",
    "Unit abbreviation": "nM",
    "Ki": 1200
  }
]

[P] CC[C@@H]1OCC(=O)[C@H]1NC(=O)[C@H](CC1(C)CCCC1)NC(=O)c1ccc(N(C)S(C)(=O)=O)cc1
[Q] CC[C@@H]1OCC(=O)[C@H]1NC(=O)[C@H](CC1(C)CCCC1)NC(=O)c1ccc(NS(=O)(=O)c2ccccc2)c(Cl)c1
Qu. Could you determine which record has the numerically smaller Ki? Candidates: P and Q Reply briefly: the label of your chosen item.
Ans. P
(P: 98 nM, Q: 1600 nM)

[a] CC[C@@H]1OCC(=O)[C@H]1NC(=O)[C@H](CC1(C)CCCC1)NC(=O)c1ccc(NS(=O)(=O)c2ccccc2)c(C)c1
[b] CC[C@@H]1OCC(=O)[C@H]1NC(=O)[C@H](CC1(C)CCCC1)NC(=O)c1ccc(NS(=O)(=O)c2ccc(F)cc2)cc1
Qu. Could you determine which record has the numerically smaller Ki? Candidates: a and b Reply briefly: the label of your chosen item.
Ans. b

###

Tgt: Procathepsin L (Homo sapiens)
Sequence (P07711 whole entry): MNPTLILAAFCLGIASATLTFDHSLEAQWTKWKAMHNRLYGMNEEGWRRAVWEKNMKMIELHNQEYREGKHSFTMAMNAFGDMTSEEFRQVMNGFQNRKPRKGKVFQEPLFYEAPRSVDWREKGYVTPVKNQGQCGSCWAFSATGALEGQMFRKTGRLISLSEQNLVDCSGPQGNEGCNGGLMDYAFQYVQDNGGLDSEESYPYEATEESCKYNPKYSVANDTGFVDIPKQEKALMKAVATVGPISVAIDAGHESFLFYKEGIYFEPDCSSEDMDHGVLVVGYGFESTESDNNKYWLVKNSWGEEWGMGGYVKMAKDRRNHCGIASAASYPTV
pKi: −log10 of the molar value.
Observation type: pKi

[
  {
    "Test smiles": "CC[C@@H]1OCC(=O)[C@H]1NC(=O)[C@H](CC1(C)CCCC1)NC(=O)c1ccc(NS(=O)(=O)c2ccccn2)cc1",
    "Tgt": "Procathepsin L (Homo sapiens)",
    "Observation type": "pKi",
    "Observed value": 4.89
  },
  {
    "Test smiles": "CC[C@@H]1OCC(=O)[C@H]1NC(=O)[C@H](CC1(C)CCCC1)NC(=O)c1ccc(NS(=O)(=O)c2ccccc2)cc1",
    "Tgt": "Procathepsin L (Homo sapiens)",
    "Observation type": "pKi",
    "Observed value": 4.96
  },
  {
    "Test smiles": "CC[C@@H]1OCC(=O)[C@H]1NC(=O)[C@H](CC1(C)CCCC1)NC(=O)c1ccc(NS(C)(=O)=O)c(C(C)=O)c1",
    "Tgt": "Procathepsin L (Homo sapiens)",
    "Observation type": "pKi",
    "Observed value": 5.02
  },
  {
    "Test smiles": "CC[C@@H]1OCC(=O)[C@H]1NC(=O)[C@H](CC1(C)CCCC1)NC(=O)c1ccc(NS(=O)(=O)c2ccc(OC)cc2)cc1",
    "Tgt": "Procathepsin L (Homo sapiens)",
    "Observation type": "pKi",
    "Observed value": 4.96
  },
  {
    "Test smiles": "CC[C@@H]1OCC(=O)[C@H]1NC(=O)[C@H](CC1(C)CCCC1)NC(=O)c1ccc(NS(=O)(=O)c2ccccc2C#N)cc1",
    "Tgt": "Procathepsin L (Homo sapiens)",
    "Observation type": "pKi",
    "Observed value": 5.07
  },
  {
    "Test smiles": "CC[C@@H]1OCC(=O)[C@H]1NC(=O)[C@H](CC(C)(C)C)NC(=O)c1ccsc1",
    "Tgt": "Procathepsin L (Homo sapiens)",
    "Observation type": "pKi",
    "Observed value": 5.00
  }
]

###

Tgt: Cathepsin K (Homo sapiens, UniProt P43235)
Sequence (P43235 whole entry): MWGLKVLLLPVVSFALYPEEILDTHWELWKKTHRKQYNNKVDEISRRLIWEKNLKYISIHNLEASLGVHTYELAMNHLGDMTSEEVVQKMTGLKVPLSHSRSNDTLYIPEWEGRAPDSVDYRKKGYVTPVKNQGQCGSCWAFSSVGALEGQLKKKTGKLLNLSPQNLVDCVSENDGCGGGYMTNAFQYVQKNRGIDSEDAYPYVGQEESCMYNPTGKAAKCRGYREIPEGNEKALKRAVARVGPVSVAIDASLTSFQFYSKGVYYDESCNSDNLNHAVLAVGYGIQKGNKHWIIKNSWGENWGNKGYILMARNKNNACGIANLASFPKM
Assay notes: Inhibition of human recombinant cathepsin K expressed in baculovirus by fluorescence assay
pKi: −log10 of the molar value.
Observation type: pKi

Use these answered entries as a reference point.
[
  {
    "Test smiles": "CC[C@@H]1OCC(=O)[C@H]1NC(=O)[C@H](CC1(C)CCCC1)NC(=O)c1ccc(NS(=O)(=O)C(F)(F)F)cc1",
    "pKi": 5.92
  },
  {
    "Test smiles": "CC[C@@H]1OCC(=O)[C@H]1NC(=O)[C@H](CC1(C)CCCC1)NC(=O)c1ccc(NS(=O)(=O)c2cccc(C#N)c2)cc1",
    "pKi": 6.14
  },
  {
    "Test smiles": "CCCCS(=O)(=O)Nc1ccc(C(=O)N[C@@H](CC2(C)CCCC2)C(=O)N[C@@H]2C(=O)CO[C@H]2CC)cc1",
    "pKi": 5.82
  },
  {
    "Test smiles": "CC[C@@H]1OCC(=O)[C@H]1NC(=O)[C@H](CC1(C)CCCC1)NC(=O)c1cccc(NS(C)(=O)=O)c1",
    "pKi": 5.82
  },
  {
    "Test smiles": "CC[C@@H]1OCC(=O)[C@H]1NC(=O)[C@H](CC1(C)CCCC1)NC(=O)c1ccc(NS(=O)(=O)CC)cc1",
    "pKi": 6.33
  }
]

[A] CC[C@@H]1OCC(=O)[C@H]1NC(=O)[C@H](CC(C)(C)C)NC(=O)c1ccsc1
[B] CC[C@@H]1OCC(=O)[C@H]1NC(=O)[C@H](CC1(C)CCCC1)NC(=O)c1ccc(NS(=O)(=O)c2ccccc2)nc1
[C] CC[C@@H]1OCC(=O)[C@H]1NC(=O)[C@H](CC1(C)CCCC1)NC(=O)c1ccc(NS(=O)(=O)C2CCCCC2)cc1
[D] CC[C@@H]1OCC(=O)[C@H]1NC(=O)[C@H](CC1(C)CCCC1)NC(=O)c1ccc(NS(=O)(=O)c2ccc(OC)cc2)cc1
Qu. Ordering: ascending pKi. Answer by listing the labels in the order asked for.
Ans. B, C, D, A

[1] CC[C@@H]1OCC(=O)[C@H]1NC(=O)[C@H](CC1(C)CCCC1)NC(=O)c1ccc(NS(=O)(=O)c2nccn2C)cc1
[2] CC[C@@H]1OCC(=O)[C@H]1NC(=O)[C@H](CC1(C)CCCC1)NC(=O)c1ccc(NS(=O)(=O)c2nc(C(C)C)cs2)cc1
Qu. I'd appreciate it if you could identify which of 1 and 2 has the greater pKi. Reply briefly: the label of your chosen item.
Ans. 1
(1: 6.19, 2: 5.77)
